Tested on: SF-295
Assay: Inhibition of human cancer cell line SF-295 (CNS)
Assay type: cell-based
// reported TGI for each item listed
Answer with a number only, understood to be in µg/mL.

Observe how each entry below is paired with its result.
Substance	Test system	TGI / µg/mL
Dov-Val-Dil-Dap-Ile-OCH3 [pentapeptide 3d]	SF-295	0.17
Dov-Val-Dil-Dap-Phe-OCH3 [pentapeptide 3a]	SF-295	0.00017
Dov-Val-Dil-Dap-Met-OCH3 [pentapeptide 3e]	SF-295	0.056
Dov-Val-Dil-Dap-Pro-OCH3 [pentapeptide 3c]	SF-295	0.0024

Proceeding to the next substance to report its TGI.
Give the reported TGI for Dov-Val-Dil-Dap-Phe-NH2 [pentapeptide 3b] (system: SF-295). 0.049
